meta.source: the supplement of paper PMC8671470

cell viability values, listed per item
- Tested on: HL-60
- Assay: cell viability (% survival relative to DMSO control); higher = less cytotoxic
- Conditions: 10 µM; 72 h; co-treatment: pictilisib 100 nM

{"Compound": "NCc1ccc(-c2cccnc2)s1 [(5-Pyrid-3-YLTHIEN-2-YL)METHYLAMINE]", "cell viability": "96.9%"}
{"Compound": "O=C(Oc1ccc([N+](=O)[O-])cc1)N1CCC(C(O)(c2ccc3c(c2)OCO3)c2ccc3c(c2)OCO3)CC1 [JZL184]", "cell viability": "99%"}
{"Compound": "Cl.OC[C@H]1NC[C@H](O)[C@@H](O)[C@H]1O [Migalastat]", "cell viability": "94.1%"}
{"Compound": "OCCN1C[C@H](O)[C@@H](O)[C@H](O)[C@H]1CO [Miglitol]", "cell viability": "106%"}
{"Compound": "CCC(CC#N)OC(=O)N[C@@H](C)c1cccc(NC(=O)Nc2ccc(-c3cnco3)c(OC)c2)c1 (stereo in doubt) [AVN-944]", "cell viability": "9.49%"}
{"Compound": "NS(=O)(=O)c1ccc(NC(=O)Cc2ccccc2)cc1 [4-(2-Phenylacetamido)Benzenesulfonamide]", "cell viability": "92.9%"}
{"Compound": "Clc1cc(Cl)c(OCC#CI)cc1Cl [Haloprogin]", "cell viability": "14.4%"}
{"Compound": "CN1CC(=O)N2[C@H](c3ccc4c(c3)OCO4)c3[nH]c4ccccc4c3C[C@@H]2C1=O [Tadalafil]", "cell viability": "89.9%"}

* * *

- System: LAMA-84
- Assay: cell viability (% survival relative to DMSO control, bortezomib = 0%); higher = less cytotoxic
- Conditions: 10000 nM; 72 h

{"Compound": "CN(C)CCNC(=O)c1cccn2c(=O)c3cc4ccccc4cc3nc12 [Bmh-21]", "cell viability [%]": 1.47}
{"Compound": "CC(C)(O)CNc1nc(Nc2ccnc(C(F)(F)F)c2)nc(-c2cccc(C(F)(F)F)n2)n1 [Enasidenib]", "cell viability [%]": 103}
{"Compound": "c1ccc2nc(-c3nnc4sc(-c5cnccn5)nn34)ccc2c1", "cell viability [%]": 94.1}
{"Compound": "CC(C)(F)C[C@H](N[C@@H](c1ccc(-c2ccc(S(C)(=O)=O)cc2)cc1)C(F)(F)F)C(=O)NC1(C#N)CC1 [Odanacatib]", "cell viability [%]": 102}
{"Compound": "OC[C@H]1N[C@@H](c2c[nH]c3c(O)ncnc23)[C@H](O)[C@@H]1O [Forodesine]", "cell viability [%]": 88.7}
{"Compound": "CCC(CC#N)OC(=O)N[C@@H](C)c1cccc(NC(=O)Nc2ccc(-c3cnco3)c(OC)c2)c1 (stereo in doubt) [AVN-944]", "cell viability [%]": 12.5}
{"Compound": "CC(C)(CCCCCCCCCCC(C)(C)CC(=O)O)CC(=O)O [MEDICA 16]", "cell viability [%]": 97.8}
{"Compound": "O=C(/C=C/c1cccnc1)NCCCCC1CCN(C(=O)c2ccccc2)CC1 [Daporinad]", "cell viability [%]": 2.17}
{"Compound": "N#Cc1ccc(C2CCCc3cncn32)cc1 (configuration not stated) [Fadrozole]", "cell viability [%]": 107}
{"Compound": "O=C(c1c2ccccc2cc2ccccc12)N1CCC(N2CCC[C@@H](C(=O)N3CCOCC3)C2)CC1", "cell viability [%]": 86.5}
{"Compound": "O=C(Cc1cccc(OC(F)(F)F)c1)Nc1ccc(CCCCc2nnc(NC(=O)Cc3ccccn3)s2)nn1 [CB-839]", "cell viability [%]": 58.4}
{"Compound": "C=C1C(=O)O[C@H](CCCCCCCC)[C@H]1C(=O)O [C75]", "cell viability [%]": 106}

* * *

- System: myeloid leukemia patient primary cells Pat.2
- Assay: cell viability (% survival relative to DMSO control); higher = less cytotoxic
- Conditions: 10000 nM; 72 h
cell viability values, listed per item
Readout name: cell viability (%)

{"Compound": "C=C1NC(=O)c2cc(CN(C)c3ccc(C(=O)N[C@@H](CCC(=O)O)C(=O)O)s3)ccc2N1 [Raltitrexed]", "Value reported": 98.5}
{"Compound": "O=C(/C=C/c1cccnc1)NCCCCC1CCN(C(=O)c2ccccc2)CC1 [Daporinad]", "Value reported": 6.63}
{"Compound": "CCn1c(=O)/c(=C2\\Sc3ccccc3N2C)s/c1=C\\c1cccc[n+]1CC.[Cl-] [MKT-077]", "Value reported": 85.4}

* * *

cell viability values, listed per item
- System: myeloid leukemia patient primary cells Pat.10
- Assay: cell viability (% survival relative to DMSO control); higher = less cytotoxic
- Conditions: 1000 nM; 72 h
Structures can show the parent of a compound that is named as a salt.

{"Compound": "Nc1nc(O)c2c(CCc3ccc(C(=O)N[C@@H](CCC(=O)O)C(=O)O)cc3)c[nH]c2n1", "Units": "%", "Bound operator": "=", "cell viability": 81.3}
{"Compound": "CCn1c(=O)/c(=C2\\Sc3ccccc3N2C)s/c1=C\\c1cccc[n+]1CC.[Cl-]", "Units": "%", "Bound operator": "=", "cell viability": 54.6}
{"Compound": "Oc1ncc(F)c(O)n1", "Units": "%", "Bound operator": "=", "cell viability": 68.9}
{"Compound": "CC(C)(Cc1ccccc1)NCC(O)c1ccc(O)c(NS(C)(=O)=O)c1 (configuration not stated) [Zinterol hydrochloride]", "Units": "%", "Bound operator": ">", "cell viability": 100}
{"Compound": "c1ccc2c(c1)SCc1c-2[nH]c2ccccc12", "Units": "%", "Bound operator": "=", "cell viability": 3.78}
{"Compound": "O=C(/C=C/c1cccnc1)NCCCCC1CCN(C(=O)c2ccccc2)CC1", "Units": "%", "Bound operator": "=", "cell viability": 2.87}
{"Compound": "NS(=O)(=O)c1ccc(S(=O)(=O)Nc2cccc3c(Cl)c[nH]c23)cc1", "Units": "%", "Bound operator": "=", "cell viability": 81.4}

* * *

- Test system: KG-1
- Assay: cell viability (% survival relative to DMSO control, bortezomib = 0%); higher = less cytotoxic
- Conditions: 10 nM; 72 h
cell viability values, listed per item

{"Compound": "CNC(=C[N+](=O)[O-])NCCSCc1ccc(CN(C)C)o1 [Ranitidine]", "cell viability": "85.8%"}
{"Compound": "CN(C)CCNC(=O)c1cccn2c(=O)c3cc4ccccc4cc3nc12 [Bmh-21]", "cell viability": "101%"}
{"Compound": "Nc1nc(O)c2c(CCc3ccc(C(=O)N[C@@H](CCC(=O)O)C(=O)O)cc3)c[nH]c2n1 [Pemetrexed]", "cell viability": "93.5%"}
{"Compound": "C=C1NC(=O)c2cc(CN(C)c3ccc(C(=O)N[C@@H](CCC(=O)O)C(=O)O)s3)ccc2N1 [Raltitrexed]", "cell viability": "103%"}
{"Compound": "NC(CCC(=O)NC(CSCc1ccc(Br)cc1)C(=O)NCC(=O)OC1CCCC1)C(=O)OC1CCCC1 (stereo not drawn) [S-para-Bromobenzylglutathione cyclopentyl diester]", "cell viability": "102%"}
{"Compound": "Nc1ccn([C@@H]2O[C@H](CO)[C@@H](O)C2(F)F)c(=O)n1 [Gemcitabine]", "cell viability": "33.4%"}
{"Compound": "CC(C)(CS(=O)(=O)[O-])NC(=O)CC[N+](C)(C)CCO", "cell viability": "114%"}
{"Compound": "O[C@H]1[C@H](O)[C@@H](O)CN2CC[C@H](O)[C@H]12 [Castanospermine]", "cell viability": "98.4%"}

* * *

- Test system: myeloid leukemia patient primary cells Pat.11
- Assay: cell viability (% survival relative to DMSO control); higher = less cytotoxic
- Conditions: 1000 nM; 72 h

{"Compound": "C=C1NC(=O)c2cc(CN(C)c3ccc(C(=O)N[C@@H](CCC(=O)O)C(=O)O)s3)ccc2N1", "cell viability, %": 97.4}
{"Compound": "O=C(c1c2ccccc2cc2ccccc12)N1CCC(N2CCC[C@@H](C(=O)N3CCOCC3)C2)CC1", "cell viability, %": 72.6}
{"Compound": "Oc1ncc(F)c(O)n1", "cell viability, %": 96.7}
{"Compound": "Nc1ccn([C@@H]2O[C@H](CO)[C@@H](O)C2(F)F)c(=O)n1", "cell viability, %": 83.6}
{"Compound": "O=c1[nH]c(=O)n([C@H]2C[C@H](O)[C@@H](CO)O2)cc1I", "cell viability, %": 90.7}
{"Compound": "CC(C)c1onc(-c2c(Cl)cccc2Cl)c1COc1ccc(/C=C/c2cccc(C(=O)O)c2)c(Cl)c1", "cell viability, %": 90.6}

* * *

- Test system: myeloid leukemia patient primary cells Pat.10
- Assay: cell viability (% survival relative to DMSO control); higher = less cytotoxic
- Conditions: 100 nM; 72 h
cell viability values, listed per item

{"Compound": "Fc1ccc(CNc2ncnc3ccc(F)cc23)cc1", "Study target": "myeloid leukemia patient primary cells Pat.10", "cell viability [%]": 96.8}
{"Compound": "Nc1nc(O)c2c(CCc3ccc(C(=O)N[C@@H](CCC(=O)O)C(=O)O)cc3)c[nH]c2n1", "Study target": "myeloid leukemia patient primary cells Pat.10", "cell viability [%]": 51.4}
{"Compound": "O=C(Oc1cccc(F)c1OC(=O)c1cccc(O)c1)c1cccc(O)c1", "Study target": "myeloid leukemia patient primary cells Pat.10", "cell viability [%]": 74.7}
{"Compound": "c1ccc2c(c1)SCc1c-2[nH]c2ccccc12", "Study target": "myeloid leukemia patient primary cells Pat.10", "cell viability [%]": 41.9}
{"Compound": "Nc1ccn([C@@H]2O[C@H](CO)[C@@H](O)C2(F)F)c(=O)n1", "Study target": "myeloid leukemia patient primary cells Pat.10", "cell viability [%]": 64.3}
